protocol-details: chitosan synthesis blockers in C. neoformans – flow cytometry, Cibacron Brilliant Red staining (AID 1347148);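 note: compound exposure lasted three days at 37 degrees C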
run-parameters: Cryptococcus neoformans chitosan; at 10 µM unless noted
The source made the active and inactive calls. The rule behind the calls is not given here.
Hello, when you answer, please use one of the following outcomes: active, inactive

Worked set:
{"columns": ["molecule", "class-label"],
 "data": [
  ["Nc1ncnc2c1c(I)cn2C1OC(CO)C(O)C1O (stereo not given)", "inactive"],
  ["COC(=O)CNC(=O)C(=O)OC", "inactive"],
  ["COC1=C2C[C@H](C)C[C@@H](OC)[C@@H](O)[C@H](C)/C=C(\\C)[C@@H](OC(N)=O)[C@H](OC)/C=C\\C=C(/C)C(=O)NC(=CC1=O)C2=O", "inactive"]
]}

Identify the outcome logged in this assay for the molecule shown: "COc1ccc(CCN(C)CCC[C@@](C#N)(c2ccc(OC)c(OC)c2)C(C)C)cc1OC"
inactive

Please state the recorded outcome for this molecule: "Clc1ccc2ncnc(NCc3ccc4c(c3)OCO4)c2c1"
inactive

Can you look up the reported call for "C=C1O[C@](CO)(n2cnc3c(N)ncnc32)[C@@H](O)[C@H]1O" for me?
inactive

Hello, I am checking results. What call was entered for "CCCCCCCCCCCCCCCCCCOC[C@@H](COP(=O)([O-])OCC[N+](C)(C)C)OC(C)=O" ?
inactive

Write down the call the test reported for this molecule. Item: "CCCCC[C@@H](O)/C=C/[C@H]1[C@@H]2C/C(=C/CCCC(=O)O)O[C@@H]2C[C@@H]1O"
inactive

Hi team, can someone confirm the assay call for CNC(=O)[C@@H]1O[C@H](n2cnc3c(NCc4cccc(I)c4)ncnc32)C(O)[C@@H]1O (stereo not given in full) ?
inactive

Could you please tell me the result logged for "CCCCCCCCCCCCCCCC(=O)C1=C(O)[C@H](CO)OC1=O" in this assay?
active
